Listed compounds paired with reported MCC at up to 200 µM
Experiment: Cytotoxicity against HEL cells assessed as effect on cell morphology at 0.32 to 200 uM by microscopic analysis
Type: cell-based
Details: human
Recorded endpoint: MCC at up to 200 µM

smiles_repr=O=c1c2ncn(CCC(CO)CO)c2nc2[nH]c(-c3ccc(Cl)cc3)cn12 recorded_endpoint="MCC at up to 200 µM" result_value="> 100 µM"
smiles_repr=O=c1c2ncn(CCCCO)c2nc2[nH]c(-c3ccc(C(F)(F)F)cc3)cn12 recorded_endpoint="MCC at up to 200 µM" result_value="> 100 µM"
smiles_repr=COc1ccc(-c2cn3c(=O)c4ncn(CCC(CO)CO)c4nc3[nH]2)cc1 recorded_endpoint="MCC at up to 200 µM" result_value="> 100 µM"

###

Tested on: Human alphaherpesvirus 3
Assay: Antiviral activity against Varicella-zoster virus Oka harboring thymidine kinase infected in HEL cells assessed as reduction in virus plaque formation
Format: functional, organism-based
Conditions: Human alphaherpesvirus 3, Oka
pEC50: −log10 of the molar value.
pEC50 below 5 gives 0.0; pEC50 at or above it gives 1.0.

molecule=O=c1c2ncn(CCC(CO)CO)c2nc2[nH]c(-c3ccc(Oc4ccccc4)cc3)cn12 label=0.0
molecule=COc1ccc(-c2cn3c(=O)c4ncn(CCC(CO)CO)c4nc3[nH]2)cc1 label=0.0
molecule=Nc1nc2c(ncn2CCCCO)c(=O)[nH]1 label=0.0
molecule="O=c1[nH]c(=O)n([C@H]2C[C@H](O)[C@@H](CO)O2)cc1/C=C/Br [BRIVUDINE]" label=1.0

###

Tested on: Human alphaherpesvirus 3
Assay: Antiviral activity against Varicella-zoster virus Oka harboring thymidine kinase infected in HEL cells assessed as reduction in virus plaque formation
Type: functional, organism-based
Conditions: Human alphaherpesvirus 3, Oka
Listed molecules paired with reported EC50
Recorded endpoint: EC50

smiles_repr=O=c1c2ncn(CCC(CO)CO)c2nc2[nH]c(-c3ccc(F)cc3)cn12 result_value="> 100 µM"
smiles_repr=O=c1c2ncn(CCC(CO)CO)c2nc2[nH]c(-c3ccccc3)cn12 result_value="> 100 µM"
smiles_repr=O=c1c2ncn(CCC(CO)CO)c2nc2[nH]c(-c3ccc4c(c3)OCO4)cn12 result_value="> 20 µM"

###

Listed compounds paired with reported IC50
Test system: Z-138
Assay: Cytostatic activity against human Z138 cells
Format: ADME, cell-based
Recorded endpoint: IC50

compound=Cc1ccc(-c2cn3c(=O)c4ncn(CCC(CO)CO)c4nc3[nH]2)cc1 result_value="> 100 µM"
compound=Nc1nc2c(ncn2CCC(CO)CO)c(=O)[nH]1 result_value="> 100 µM"
compound=O=c1c2ncn(CCC(CO)CO)c2nc2[nH]c(-c3ccccc3)cn12 result_value="> 100 µM"
compound="CC(=O)O[C@@]12CO[C@@H]1C[C@H](O)[C@@]1(C)C(=O)[C@H](O)C3=C(C)[C@@H](OC(=O)[C@H](O)[C@@H](NC(=O)OC(C)(C)C)c4ccccc4)C[C@@](O)([C@@H](OC(=O)c4ccccc4)[C@H]21)C3(C)C [DOCETAXEL ANHYDROUS]" result_value="0.003 µM"
compound=Nc1nc2c(ncn2CCCCO)c(=O)[nH]1 result_value="> 100 µM"
compound=O=c1c2ncn(CCC(CO)CO)c2nc2[nH]c(-c3ccc(C(F)(F)F)cc3)cn12 result_value="76.1 µM"
compound=O=c1c2ncn(CCCCO)c2nc2[nH]c(-c3cccs3)cn12 result_value="> 100 µM"
compound=O=c1c2ncn(CCCCO)c2nc2[nH]c(-c3ccccc3)cn12 result_value="> 100 µM"

###

System: Human alphaherpesvirus 1
Experiment: Antiviral activity against herpes simplex virus 1 KOS infected in HEL cells assessed as reduction in virus-induced cytopathogenicity by microscopic analysis
Assay type: functional, organism-based
Conditions: Human alphaherpesvirus 1, strain KOS
Listed molecules paired with reported EC50
Recorded endpoint: EC50

smiles_repr=O=c1c2ncn(CCC(CO)CO)c2nc2[nH]c(-c3ccc(C(F)(F)F)cc3)cn12 recorded_endpoint=EC50 result_value="20 µM"
smiles_repr=O=c1c2ncn(CCC(CO)CO)c2nc2[nH]c(-c3ccc(Cl)cc3)cn12 recorded_endpoint=EC50 result_value="> 100 µM"
smiles_repr=COc1ccc(-c2cn3c(=O)c4ncn(CCC(CO)CO)c4nc3[nH]2)cc1 recorded_endpoint=EC50 result_value="1.5 µM"
smiles_repr=Cc1ccc(-c2cn3c(=O)c4ncn(CCCCO)c4nc3[nH]2)cc1 recorded_endpoint=EC50 result_value="> 100 µM"
smiles_repr=O=c1c2ncn(CCC(CO)CO)c2nc2[nH]c(-c3ccc(F)cc3)cn12 recorded_endpoint=EC50 result_value="8.9 µM"
smiles_repr=Nc1nc2c(ncn2COCCO)c(=O)[nH]1 recorded_endpoint=EC50 result_value="0.9 µM"
smiles_repr=Nc1nc2c(ncn2CCCCO)c(=O)[nH]1 recorded_endpoint=EC50 result_value="1.5 µM"
smiles_repr=O=c1c2ncn(CCCCO)c2nc2[nH]c(-c3ccc(F)cc3)cn12 recorded_endpoint=EC50 result_value="> 100 µM"
smiles_repr=O=c1c2ncn(CCC(CO)CO)c2nc2[nH]c(-c3ccc4c(c3)OCO4)cn12 recorded_endpoint=EC50 result_value="44.7 µM"
smiles_repr=O=c1c2ncn(CCC(CO)CO)c2nc2[nH]c(-c3ccc(Oc4ccccc4)cc3)cn12 recorded_endpoint=EC50 result_value="> 100 µM"
smiles_repr=O=c1c2ncn(CCCCO)c2nc2[nH]c(-c3ccc4c(c3)OCO4)cn12 recorded_endpoint=EC50 result_value="> 100 µM"
smiles_repr=O=c1c2ncn(CCC(CO)CO)c2nc2[nH]c(-c3ccccc3)cn12 recorded_endpoint=EC50 result_value="> 100 µM"
smiles_repr=COc1ccc(-c2cn3c(=O)c4ncn(CCCCO)c4nc3[nH]2)cc1 recorded_endpoint=EC50 result_value="> 100 µM"
smiles_repr=Cc1ccc(-c2cn3c(=O)c4ncn(CCC(CO)CO)c4nc3[nH]2)cc1 recorded_endpoint=EC50 result_value="> 100 µM"
smiles_repr=CCOc1ccc(-c2cn3c(=O)c4ncn(CCC(CO)CO)c4nc3[nH]2)cc1 recorded_endpoint=EC50 result_value="76.5 µM"
smiles_repr=Nc1nc2c(ncn2CCC(CO)CO)c(=O)[nH]1 recorded_endpoint=EC50 result_value="0.8 µM"
smiles_repr=O=c1c2ncn(CCCCO)c2nc2[nH]c(-c3ccc(Cl)cc3)cn12 recorded_endpoint=EC50 result_value="> 100 µM"
smiles_repr=O=c1c2ncn(CCCCO)c2nc2[nH]c(-c3ccc(C(F)(F)F)cc3)cn12 recorded_endpoint=EC50 result_value="> 100 µM"
smiles_repr=O=c1c2ncn(CCC(CO)CO)c2nc2[nH]c(-c3ccc(O)cc3)cn12 recorded_endpoint=EC50 result_value="7.6 µM"
smiles_repr=O=c1c2ncn(CCCCO)c2nc2[nH]c(-c3ccccc3)cn12 recorded_endpoint=EC50 result_value="> 100 µM"
smiles_repr=O=c1c2ncn(CCCCO)c2nc2[nH]c(-c3cccs3)cn12 recorded_endpoint=EC50 result_value="> 100 µM"

###

Test system: Human alphaherpesvirus 3
Experiment: Antiviral activity against Varicella-zoster virus Oka harboring thymidine kinase infected in HEL cells assessed as reduction in virus plaque formation
Assay type: functional, organism-based
Conditions: Human alphaherpesvirus 3, Oka
Listed compounds paired with reported EC50
Recorded endpoint: EC50 (µM)

smiles_repr=Cc1ccc(-c2cn3c(=O)c4ncn(CCC(CO)CO)c4nc3[nH]2)cc1 qualifier_sign== result_value=63.1
smiles_repr=O=c1c2ncn(CCC(CO)CO)c2nc2[nH]c(-c3ccc(C(F)(F)F)cc3)cn12 qualifier_sign== result_value=49.5
smiles_repr=Nc1nc2c(ncn2CCC(CO)CO)c(=O)[nH]1 qualifier_sign== result_value=3.5
smiles_repr=CCOc1ccc(-c2cn3c(=O)c4ncn(CCC(CO)CO)c4nc3[nH]2)cc1 qualifier_sign=> result_value=100
smiles_repr=O=c1c2ncn(CCC(CO)CO)c2nc2[nH]c(-c3ccc(Cl)cc3)cn12 qualifier_sign=> result_value=100

###

System: Z-138
Assay: Cytostatic activity against human Z138 cells
Assay type: ADME, cell-based
Listed molecules paired with reported IC50
Recorded endpoint: IC50

smiles_repr=CCOc1ccc(-c2cn3c(=O)c4ncn(CCC(CO)CO)c4nc3[nH]2)cc1 recorded_endpoint=IC50 result_value="> 100 µM"
smiles_repr=COc1ccc(-c2cn3c(=O)c4ncn(CCCCO)c4nc3[nH]2)cc1 recorded_endpoint=IC50 result_value="> 100 µM"
smiles_repr=O=c1c2ncn(CCCCO)c2nc2[nH]c(-c3ccc4c(c3)OCO4)cn12 recorded_endpoint=IC50 result_value="> 100 µM"
smiles_repr=O=c1c2ncn(CCCCO)c2nc2[nH]c(-c3ccc(F)cc3)cn12 recorded_endpoint=IC50 result_value="> 100 µM"
smiles_repr=O=c1c2ncn(CCC(CO)CO)c2nc2[nH]c(-c3ccc4c(c3)OCO4)cn12 recorded_endpoint=IC50 result_value="> 100 µM"

Reference source: ChEMBL document CHEMBL4368930
